assayName: M. tuberculosis H37Rv growth inhibitors, H37Rv strain (AID 1626);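 further: bacteria incubated seven days before Alamar blue readout; 0% = bacteria only wells and 100% = bacteria with antibiotic wells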
conditionDetails: stronger effect = higher value, concentration not given here
The whole screen tested about 220,000 compounds, of which about 2,000 (0.91%) were called active. About 2% were inconclusive and are not listed. Only a sample is shown. Results with a measured potency or affinity are listed apart.
Field: inhibition. Provide a value for each of the compounds that follow.
# output: bare number, implied unit %

// inhibition value for "CN(C)CCNC(=O)c1cc2ccccc2oc1=O" : 2.99

// inhibition value for "CCCCC(=O)c1ccc(O)cc1O" : 77

// inhibition value for "O=C(CSc1nnnn1-c1ccccc1)Nc1ncc(Cc2ccccc2Cl)s1" : 0.66

// inhibition value for "CCOC(=O)c1[nH]c2cc(OC)c(OC)cc2c1NC(=O)CN1CCN(C)CC1" : -4.7

// inhibition value for "CC1(C)CC(NC(=S)NC2CC2)CC(C)(C)N1" : -4.39

// inhibition value for "Cc1cc(NC(=O)C2CCC2)n(-c2ccccn2)n1" : 2.03

// inhibition value for "CC(C)COc1ncnc2c1sc1nc3c(cc12)COC(C)(C)C3" : -12.6

// inhibition value for "CCCCN(C(=O)c1c(C)[nH]c(C(=O)OCC)c1C)c1ccccc1" : -3.19

// inhibition value for "COc1cccc(-c2nc(-c3ccc(NC(=O)c4ccncc4)cc3)no2)c1" : 7.98

// inhibition value for "COc1ccc(/C=C/C(=O)Nc2cc(C)nn2-c2nc3ccccc3[nH]2)cc1" : 11.4

// inhibition value for "CCCCCCCC(=O)N/N=C(\C)c1ccc(O)cc1O" : 11.6

// inhibition value for "Cc1cccc(N2CCN(Cc3ccoc3)CC2)c1C" : 2.81

// inhibition value for "CS(=O)(=O)c1ccc2nc(NC(=O)c3ccc(NS(=O)(=O)c4cccc([N+](=O)[O-])c4)cc3)sc2c1" : 34.8

// inhibition value for "O=C1CCC/C(=N\NC(=O)c2ccc(COc3ccccc3-c3ccccc3)cc2)C1" : 4.62

// inhibition value for COc1ccc(NC(=O)C2CCCO2)cc1 (stereo unspecified) : -10

// inhibition value for Cc1ccc2oc3c(c(=O)c2c1)C(c1cccc(Br)c1)N(Cc1ccco1)C3=O (stereo unspecified) : 1.98

// inhibition value for Cc1ccc(CC2CC(=O)N(c3ncccn3)C2=O)cc1 (stereo unspecified) : -1.69

// inhibition value for "CCn1ccnc1CNCc1cn(-c2cc(C)ccc2C)nc1-c1ccccc1" : 72

// inhibition value for "CN(Cc1ncc[nH]1)Cc1cn(-c2ccccc2)nc1-c1ccc2c(c1)OCO2" : 6.67

// inhibition value for "CN1CCN(c2ncnc3c2c(-c2ccccc2)cn3-c2ccc(F)cc2)CC1" : 5.53

// inhibition value for O=C(Nc1ccc(Oc2ccc(NC(=O)C3CCCO3)cc2)cc1)C1CCCO1 (stereo unspecified) : -8.27

// inhibition value for "CC(=O)OCCNC(=O)c1cc2ccccc2oc1=O" : -6.56

// inhibition value for "O=C(COc1ccccc1)N1CCN(C/C=C/c2ccccc2)CC1" : -6.49

// inhibition value for "Cc1ccc(C)c(-n2cc(CNCCCn3cccn3)c(-c3ccccc3)n2)c1" : -1.54

// inhibition value for COC(=O)C1C(c2ccccc2)C=CC(c2ccccc2)C1C(=O)O (stereo unspecified) : 1.24

// inhibition value for "CC(C)CCN1C(=O)c2ccc(C(=O)NCc3ccco3)cc2C1=O" : 4.17

// inhibition value for C/C(=N\N=C(/N)SC1CC(=O)N(c2ccc(Cl)cc2)C1=O)c1cccs1 (stereo unspecified) : 64.5

// inhibition value for "Cc1ccc(-n2cc(CN3CCN(Cc4nccn4C)CC3)c(-c3cccc(C)c3)n2)cc1" : -0.87

// inhibition value for COc1ccccc1NC(=O)C(C)N1CCN(C/C=C/c2ccccc2)CC1 (stereo unspecified) : 11.9

// inhibition value for "O=C(CCO)c1ccc(O)cc1" : 12.1

// inhibition value for "CCC(=O)c1ccc(O)cc1" : 14.2

// inhibition value for "CNC(=O)CSc1nnc(-c2ccncc2)n1Cc1ccccc1" : -4.15

// inhibition value for Cc1cc(Cl)ccc1NC(=O)C1CCCN1C(=O)c1cccs1 (stereo unspecified) : 0.31

// inhibition value for "CCn1ccnc1CN(C)Cc1cn(-c2ccccc2)nc1-c1ccc(OC)cc1F" : 15

// inhibition value for Cc1cccc(N2CCN(C(=O)c3cccc(N4C(=O)C5CC=CC(C)C5C4=O)c3)CC2)c1C (stereo unspecified) : -7

// inhibition value for "O=C(COc1ccc(Cl)cc1)N1CCN(C/C=C/c2ccccc2)CC1" : 0.36

// inhibition value for "Cc1ccc([N+](=O)[O-])cc1N(CC(=O)NC1CCCC1)S(C)(=O)=O" : 1.23

// inhibition value for "CCOC(=O)C(=O)Nc1cc(C)nn1-c1nc2ccccc2[nH]1" : -8.84

// inhibition value for "COc1ccc(C)cc1NC(=O)CN1CCN(C/C=C/c2ccccc2)CC1" : -3.7

// inhibition value for "CCOc1ccc(-n2c(N)c(C(=O)N3CCN(C)CC3)sc2=S)cc1" : 2.86

// inhibition value for "NNC(=O)COc1ccccc1[N+](=O)[O-]" : -1.65

// inhibition value for "O=C(COC(=O)Cc1ccccc1F)Nc1ccc(Cl)cn1" : -6.09

// inhibition value for "O=C(NC1CCCCC1)c1ccc(Cn2cc(Cl)cn2)cc1" : 0.85

// inhibition value for "O=C(Nc1ccc(N2CCOCC2)cc1)C1CC1" : -4.12

// inhibition value for "Cc1cc(N/C=C(\C#N)S(=O)(=O)c2ccccc2Cl)nc(C)n1" : -9.07

// inhibition value for "O=C(CN1CCN(C/C=C/c2ccccc2)CC1)Nc1ccc(F)cc1F" : -0.62
